TARGET UNDER TEST: CD123 peptide epitope (24 aa, extracellular domain, disulfide between the two Cys)
PROCEDURE DETAILS: flow cytometry, peptide-coated magnetic beads
STUDY CONDITIONS: PBS (binding buffer), 37 °C, 30 min; BSA-bead signal subtracted for Kd; pH and salt not given
Reported pKd values follow for various sequences
The read-out pKd is expressed as -log10 of concentration in moles per litre.

SEQ	pKd
TGCGTGTGTACTGTGTCTGGTCCCGTAGCTACTAGCGAACTCCCTGCCTCTTAGGGATTTGGGCGG [CY30]	7.81

Next:
GET /values?readout=pKd&item= TGCGTGTGTAGTGTGTCTGGGCTACATCGATGAGCTGCCTAGGGTCCCTCTTAGGGATTTGGGCGG [ZW25] 7.53
